# TARGET DESC: βI,βI-tubulin (Homo sapiens, UniProt P07437)
# Sequence (P07437 whole entry): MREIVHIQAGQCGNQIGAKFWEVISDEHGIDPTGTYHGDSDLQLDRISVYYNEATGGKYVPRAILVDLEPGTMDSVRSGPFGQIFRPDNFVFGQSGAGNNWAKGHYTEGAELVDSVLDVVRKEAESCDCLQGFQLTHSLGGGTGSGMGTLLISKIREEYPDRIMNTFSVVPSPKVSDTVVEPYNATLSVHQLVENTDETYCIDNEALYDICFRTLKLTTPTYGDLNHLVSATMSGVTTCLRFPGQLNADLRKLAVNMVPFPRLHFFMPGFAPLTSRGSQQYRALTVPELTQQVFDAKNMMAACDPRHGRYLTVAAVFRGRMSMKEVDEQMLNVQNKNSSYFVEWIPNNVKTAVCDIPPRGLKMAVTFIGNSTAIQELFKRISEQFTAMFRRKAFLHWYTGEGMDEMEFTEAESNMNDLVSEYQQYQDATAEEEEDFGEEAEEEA
# PROCEDURE SUMMARY: Tryptophan fluorescence quenching binding assay, recombinant βI,βI-tubulin homodimer
# RECORDED CONDITIONS: dissociation constant, calculated
OBSERVABLE: pKd
The scale used: pKd is minus the common logarithm of the concentration in molar units.

[in] Report pKd for COc1ccc2c(c1OC)C(=O)O[C@@H]2[C@H]1c2c(cc3c(c2OC)OCO3)CCN1C please.
[out] 3.37

====

# TARGET DESC: Porcine brain tubulin (unfractionated)
# PROCEDURE SUMMARY: Tryptophan fluorescence quenching binding assay, porcine brain tubulin
# RECORDED CONDITIONS: dissociation constant, calculated
OBSERVABLE: Kd

[in] Report Kd for COc1ccc2c(c1OC)C(=O)O[C@@H]2[C@H]1c2c(cc3c(c2OC)OCO3)CCN1C please.
[out] 265 µM

====

# TARGET DESC: αI,βIII-tubulin (Homo sapiens, UniProt Q13509+Q71U36)
# Construct: His-tag (N)
# Sequence (Q71U36 whole entry): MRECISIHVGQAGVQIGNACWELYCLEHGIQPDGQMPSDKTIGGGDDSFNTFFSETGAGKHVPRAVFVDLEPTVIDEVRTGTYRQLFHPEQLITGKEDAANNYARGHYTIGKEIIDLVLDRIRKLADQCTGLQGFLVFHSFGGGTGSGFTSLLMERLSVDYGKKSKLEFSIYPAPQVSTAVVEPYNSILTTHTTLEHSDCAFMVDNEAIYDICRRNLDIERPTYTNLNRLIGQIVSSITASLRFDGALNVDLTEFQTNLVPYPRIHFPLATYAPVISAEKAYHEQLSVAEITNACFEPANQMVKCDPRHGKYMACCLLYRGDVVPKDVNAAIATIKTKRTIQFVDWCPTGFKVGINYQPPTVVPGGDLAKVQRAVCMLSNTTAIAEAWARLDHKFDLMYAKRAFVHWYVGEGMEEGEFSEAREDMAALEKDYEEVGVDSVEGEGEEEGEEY
# Sequence (Q13509 whole entry): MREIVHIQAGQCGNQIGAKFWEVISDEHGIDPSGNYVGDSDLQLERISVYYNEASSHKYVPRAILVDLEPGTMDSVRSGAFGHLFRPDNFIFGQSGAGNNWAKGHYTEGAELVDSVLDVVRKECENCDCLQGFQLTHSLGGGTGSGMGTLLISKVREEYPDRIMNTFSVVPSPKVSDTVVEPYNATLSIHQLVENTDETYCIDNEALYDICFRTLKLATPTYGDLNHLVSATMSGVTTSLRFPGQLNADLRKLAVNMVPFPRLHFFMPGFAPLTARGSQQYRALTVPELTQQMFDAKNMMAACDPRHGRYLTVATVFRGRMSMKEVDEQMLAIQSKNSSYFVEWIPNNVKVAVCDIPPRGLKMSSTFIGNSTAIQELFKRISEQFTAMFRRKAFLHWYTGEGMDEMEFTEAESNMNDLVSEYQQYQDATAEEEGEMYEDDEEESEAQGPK
# PROCEDURE SUMMARY: Tryptophan fluorescence quenching binding assay, recombinant αI,βIII-tubulin heterodimer
# RECORDED CONDITIONS: dissociation constant, calculated
OBSERVABLE: pKd
The scale used: pKd is minus the common logarithm of the concentration in molar units.

[in] Report pKd for COc1ccc2c(c1OC)C(=O)O[C@@H]2[C@H]1c2c(cc3c(c2OC)OCO3)CCN1C please.
[out] 3.54
